molecular target: Glycine N-methyltransferase (Homo sapiens) (UniProt Q14749); assay: Primary Screen for Target Class Profiling of Small Molecule Inhibitors of Methyltransferases; details: purified enzyme, MTase-Glo SAH luminescence; measured here: GNMT inhibition; at 40 µM; stronger effect = lower value; note: % is set by controls: 0 for no effect and ±100 for the full control effect
Sequence (Q14749 whole entry, looked up): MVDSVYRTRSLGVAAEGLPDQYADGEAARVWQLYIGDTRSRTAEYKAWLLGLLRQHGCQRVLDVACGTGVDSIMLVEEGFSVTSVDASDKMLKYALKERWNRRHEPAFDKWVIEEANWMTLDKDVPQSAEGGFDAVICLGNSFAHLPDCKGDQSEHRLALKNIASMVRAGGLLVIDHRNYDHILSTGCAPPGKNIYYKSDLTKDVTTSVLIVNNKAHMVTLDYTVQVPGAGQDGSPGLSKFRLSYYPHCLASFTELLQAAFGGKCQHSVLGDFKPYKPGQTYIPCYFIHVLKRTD
The whole screen tested about 25,000 compounds, of which about 970 (3.9%) were called active. Roughly 8% stayed inconclusive and do not appear here. The list comes from a sample in which actives are over-represented; it also holds close analogues and randomly drawn compounds.

compound | unit_tag | activity change, negative = inhibition
CCCCNC(=O)CCc1nnc2n(CC(C)C)c(=O)c3ccccc3n12 | % | -1.98
O=C(Nc1ccccc1Cl)N1CCn2cccc2C1Cc1ccccc1 (stereo not given) | % | -4.49
COc1ccccc1-c1[nH]nc2ncc(C(=O)N3CCN(Cc4ccccc4)CC3)nc12 | % | -70.9
CC(C)CCN1CC2(CCCN(C(=O)c3ccn(C)c(=O)c3)C2)CCC1=O (stereo not given) | % | -57.8
CC1CC(O)/C=C/C(O)/C=C\C(=O)O1 (stereo not given) | % | 0.769
N#CSc1cc(SC#N)c(N)nc1N | % | -92.7
COCCN1CC2(CCC1=O)CCN(C(=O)[C@@H]1C[C@@H](O)CN1)CC2 | % | -0.827
CCCn1c(=O)c2cc(Cl)ccc2n2c(SCC(=O)Nc3cccc(Cl)c3)nnc12 | % | -7.66
CCCn1c(=O)c2ccc(C(=O)NC3CCCC3)cc2n2c(=O)n(Cc3ccc(F)cc3Cl)nc12 | % | -1.81
O=C(O)C1=NOC2CN([S+](=O)([O-])c3cc(C(F)(F)F)cc(C(F)(F)F)c3)CC12 (stereo not given) | % | 0.245
Cc1nc2c(c(-c3ccc(O)cc3)n1)CN(C(=O)c1ccccc1C)CCC2 | % | -6.74
CCC(C)C(=O)OC1C(C)C2(O)C(C=C(CO)CC3(O)C(=O)C(C)=CC32)C2C(C)(C)C12OC(=O)C(C)C (stereo not given) | % | -4.22
CCC[C@H]1CN(C(=O)c2ccc3c(c2)NC(=O)CN3)C[C@@H]1N | % | -3.38
Cc1cc(Nc2cc(N3CCN(C)CC3)nc(Sc3ccc(NC(=O)C4CC4)cc3)n2)n[nH]1 | % | -71.8
COc1ccc(S(=O)(=O)N2CCCCC2c2n[nH]c(C)n2)cc1 (stereo not given) | % | 15.6
CCC(C)N1Cc2cc(NC(=O)c3ccc([N+](=O)[O-])cc3)ccc2OCC1=O (stereo not given) | % | -7.2
CN1C(=O)c2cc(C(=O)N3CCN(Cc4ccccc4)CC3)nn2CC1(C)C(=O)NCc1ccccc1 (stereo not given) | % | 5.09
CN(CCCNC(=O)CCCc1nnc2n3nc(-c4ccccc4)nc3c3ccccc3n12)Cc1ccccc1 | % | -16.6
Cc1c(NS(=O)(=O)c2cccc3c2C(=O)c2ccccc2C3=O)c(=O)n(-c2ccccc2)n1C | % | -20.9
CCNC(=O)N1CC[C@H]2CC(=O)N(Cc3cccnc3)CC[C@H]2C1 | % | -6.64

====

biological target: Phenylethanolamine N-methyltransferase (Homo sapiens) (UniProt P11086); assay: Primary Screen for Target Class Profiling of Small Molecule Inhibitors of Methyltransferases; conditions: purified enzyme, MTase-Glo SAH luminescence; measured here: PNMT inhibition; at 40 µM; stronger effect = lower value; note: % is set by controls: 0 for no effect and ±100 for the full control effect
Sequence (P11086 whole entry, looked up): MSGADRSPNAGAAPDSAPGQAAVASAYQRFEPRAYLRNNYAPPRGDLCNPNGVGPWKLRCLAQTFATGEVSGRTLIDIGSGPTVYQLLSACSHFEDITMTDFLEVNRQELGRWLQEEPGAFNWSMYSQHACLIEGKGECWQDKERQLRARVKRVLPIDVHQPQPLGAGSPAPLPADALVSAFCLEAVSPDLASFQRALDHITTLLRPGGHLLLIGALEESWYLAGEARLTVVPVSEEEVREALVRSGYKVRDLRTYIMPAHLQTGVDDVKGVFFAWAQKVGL
The whole screen tested about 25,000 compounds, of which about 970 (3.9%) were called active. Another 8% or so got no clear call; they are omitted. Many of the other results were omitted from the sample, so actives are more common in it than they were.

compound | unit_tag | activity change, negative = inhibition
COc1cc(NC(=O)CSc2nnc3n(CC(C)C)c(=O)c4ccccc4n23)cc(OC)c1 | % | 1.8
Cc1ccccc1CN1C(=O)c2cc(-c3cccs3)nn2CC1(C)C(=O)NC1CCCCC1 (stereo not drawn) | % | -1.18
CC1CCN(S(=O)(=O)c2ccc3c(ccn3CCC(=O)N3CCN(c4ccccn4)CC3)c2)CC1 | % | -2.86
C[C@@H]1CC[C@]2(C(=O)O[C@@H]3O[C@H](CO)[C@@H](O)[C@H](O)[C@H]3O)CC[C@]3(C)C(=CCC4[C@@]5(C)C[C@@H](O)[C@H](O)[C@](C)(C(=O)O)C5CC[C@]43C)[C@@H]2[C@]1(C)O (stereo partly drawn) | % | 7.5
COc1ccc(C(=O)N2CCN(C(=O)N3CC4CC(C3)[C@H]3CCCC(=O)N3C4)CC2)c(OC)n1 (stereo partly drawn) | % | 0.052
COc1ccc(CN2C(=O)c3cc4sccc4n3CC2(C)C(=O)NC2CCCCC2)cc1 (stereo not drawn) | % | -2.93
N#CSc1cc(SC#N)c(N)nc1N | % | -40.8
CCOC(=O)c1cc2n(n1)CC(C)(C(=O)NC1CCCC1)N(c1ccc(C)cc1)C2=O (stereo not drawn) | % | 2.88

====

target: Nicotinamide N-methyltransferase (Homo sapiens) (UniProt P40261); test: Primary Screen for Target Class Profiling of Small Molecule Inhibitors of Methyltransferases; details: purified enzyme, MTase-Glo SAH luminescence; measured here: NNMT inhibition; at 40 µM; stronger effect = lower value; note: % is set by controls: 0 for no effect and ±100 for the full control effect
Sequence (P40261 whole entry, looked up): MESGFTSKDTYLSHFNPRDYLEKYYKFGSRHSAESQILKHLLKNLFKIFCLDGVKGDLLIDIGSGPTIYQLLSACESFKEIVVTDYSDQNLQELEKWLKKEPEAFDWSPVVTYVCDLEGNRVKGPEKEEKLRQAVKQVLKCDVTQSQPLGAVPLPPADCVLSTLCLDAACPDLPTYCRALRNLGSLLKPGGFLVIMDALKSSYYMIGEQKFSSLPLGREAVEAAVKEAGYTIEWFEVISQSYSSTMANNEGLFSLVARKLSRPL
The whole screen tested about 25,000 compounds, of which about 970 (3.9%) were called active. Another 8% or so got no clear call; they are omitted. The entries come from a sample that favours actives as a whole.
This listing pairs compounds with measured activity change, negative = inhibition.

compound | unit_tag | activity change, negative = inhibition
COc1ccc2cc3n(c2c1)CC(C)(C(=O)NC1CCCC1)N(CCc1ccc(SC)cc1)C3=O (stereo not given) | % | -0.661
Cc1cnc(C2CCC2)n1C1CCN(C(=O)CCC2CCCC2)CC1 | % | -10.2
CC1CCCC(NC(=O)C2(C)Cn3c(cc4sccc43)C(=O)N2c2ccc(Cl)cc2)C1C (stereo not given) | % | 2.89
O=C(Cn1nc2n(Cc3ccc(F)cc3)c(=O)c3ccccc3n2c1=O)c1cccc(Cl)c1 | % | -8.66
CC1(C(=O)NC2CCCC2)Cn2c(cc3ccccc32)C(=O)N1c1ccc(F)cc1 (stereo not given) | % | 5.9
COc1ccc(C(=O)N2CCC3(CC2)CCC(O)(CN(C)C)CC3)cc1OC | % | -5.54
CCCCN1C(=O)c2cc(C(=O)NCc3cccc(OC)c3)nn2CC1(C)C(=O)NC1CCCC1 (stereo not given) | % | 5.98
CCOc1ccc(CNC(=O)c2ncn3c2C(=O)N(C2CC2)C(C)(C(=O)NCc2ccccc2Cl)C3)cc1 (stereo not given) | % | 1.94
COCCn1c2c(c(=O)n1-c1ccccc1)CCN(Cc1cccc(C#N)c1)C2 | % | -7.68
CCC(C)C(=O)OC1C(C)C2(O)C(C=C(CO)CC3(O)C(=O)C(C)=CC32)C2C(C)(C)C12OC(=O)C(C)C (stereo not given) | % | -15.7
CCCn1c(=O)c2ccc(C(=O)NC(C)C)cc2n2c(=O)n(CC(=O)NCc3ccccc3Cl)nc12 | % | 8
CCC[C@H]1CN(C(=O)c2ccc3c(c2)NC(=O)CN3)C[C@@H]1N | % | -6.82
COc1cc(N)c(Cl)cc1C(=O)NC[C@@H]1CCN2CCC[C@@H]12 | % | -21.4
Cc1cc(C[C@@H]2COC[C@@H]2NC(=O)c2cccc(-n3nc(C)cc3C)c2)on1 | % | -12.1
CCc1ccc(S(=O)(=O)c2nnn3c2nc(N2CCCCC2)c2ccccc23)cc1 | % | -3.24
CCOCCCN1C(=O)c2cc3ccccc3n2CC1(C)C(=O)NCCC(C)C (stereo not given) | % | 10.6
CN1C(=O)c2cc(C(=O)NCCc3cccs3)nn2CC1(C)C(=O)NCc1ccc(F)cc1 (stereo not given) | % | 9.12
Clc1cc(NCc2ccccn2)n2nccc2n1 | % | -13.1
NCCCC(=O)N1CCN(C2CCNCC2)C(=O)C1 | % | -1.96
CC1CC(O)/C=C/C(O)/C=C\C(=O)O1 (stereo not given) | % | -2.16

====

activity change, negative = inhibition for assorted compounds
biological target: Phenylethanolamine N-methyltransferase (Homo sapiens); assay: Primary Screen for Target Class Profiling of Small Molecule Inhibitors of Methyltransferases; conditions: purified enzyme, MTase-Glo SAH luminescence; measured here: PNMT inhibition; at 40 µM; stronger effect = lower value; note: % is set by controls: 0 for no effect and ±100 for the full control effect
The campaign covered roughly 25,000 compounds. About 970 (3.9%) were called active. About 8% were inconclusive and are not listed. Only a selection was taken, and actives are over-represented in it overall.

compound | activity change, negative = inhibition [%]
C/C=C\NC(=O)C1NC(=O)C(CC(N)=O)NC(=O)C(NC(=O)C(=O)C(C)CC)Cc2ccc(O)c(c2)-c2cccc3c2NC(=O)C3(O)C1O (stereo not given) | -2.58
COCCOc1cc(=O)n2c(c1C(=O)NCc1ccccc1)CCOCC2 | 1.39
O=C(CCc1nnc2ccc(NCCCN3CCCC3=O)nn12)NCc1ccccc1Cl | 9.12
Cc1cc(Cl)ccc1OCC(=O)N1CC(CO)C2(CCNCC2)C1 (stereo not given) | 4.28
O=C(/C=C/c1ccc(CN(CCO)CCc2c[nH]c3ccccc23)cc1)NO | 12.3
CCCn1c(=O)c2ccc(C(=O)NC(C)C)cc2n2c(=O)n(CC(=O)NCc3ccccc3Cl)nc12 | 4.03
COc1ccc(C2Cn3nnc(-c4noc(C5CCC5)n4)c3CO2)cc1 (stereo not given) | -12.5
CCOC(=O)CC1(NC(=O)N2CCn3cccc3C2Cc2ccccc2)CCCCC1 (stereo not given) | -40.7
CCOc1ccc(CNC(=O)c2ncn3c2C(=O)N(C2CC2)C(C)(C(=O)NCc2ccccc2Cl)C3)cc1 (stereo not given) | 7.97
CCCn1c(=O)c2cc(Cl)ccc2n2c(SCC(=O)Nc3ccc(Cl)cc3)nnc12 | 1.76
COc1ccc(NC(=O)CSc2nnc3n(CCCOC(C)C)c(=O)c4ccccc4n23)cc1 | 5.87
COc1ccccc1CNC(=O)c1nn(CC2CC2)c2c1CNCC2 | -12.2
CCCn1c(=O)c2cc(Cl)ccc2n2c(SCC(=O)Nc3cccc(Cl)c3)nnc12 | -4.95
C=C1C(=O)O[C@@H]2[C@H]1CC[C@H](C)[C@]1(CCC(=O)O1)C2(C)O (stereo not given in full) | 5.47
Cc1ccc(C)c(Cn2nc3n(C)c(=O)c4ccc(C(=O)NC5CCCCC5)cc4n3c2=O)c1 | 6.36
Cn1c(=O)n(C)c2cc(Nc3nc4ccccc4nc3NS(=O)(=O)c3ccc(Cl)cc3)ccc21 | -6.48
CCCN1C(=O)c2cc3sccc3n2CC1(C)C(=O)NC1CCC(C)CC1 (stereo not given) | -2.48
Cc1nonc1OCCn1ccnc1-c1cn(C2CCNCC2)nn1 | -1.03
CC(=O)N(C1CCOCC1)C1CCN(S(=O)(=O)c2ccc3c(c2)OCCO3)CC1 | 10
CCn1c(=O)n(CC)c2cc(S(=O)(=O)Nc3ccc(Br)c(C)c3)c(Cl)cc21 | -4.27
